src = PubChem BioAssay (NCI)

Task for the reader: assign each of the following compounds its reported growth inhibition.
TEST DESCRIPTION: NCI Yeast Anticancer Drug Screen. Data for the wt2 strain (AID 169);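 note: 0% = growth of vehicle-treated yeast cultures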
EXPERIMENTAL PARAMETERS: S. cerevisiae wt2 strain growth inhibition; at 33.0 µM; active compounds read high
About 79,000 compounds went through this panel and 15% of them were active in at least one assay; those are over-represented in the sample as a whole. Activity calls are given as the source filed them. Cut-off read from the data, not from the text of the source: active = growth inhibition above about 70%; inactive = the rest.

Problem: Given the compound Cc1ccc2c(c1)C1(SC(C)C(=O)N1c1ccc(Cl)cc1)C(=O)N2 (stereo not given) , write its reported growth inhibition.
Solution: 98% (active)

Problem: Please supply the value of reported growth inhibition for the item "Cc1ccccc1N=Cc1cc(Cl)ccc1O"
Solution: 2% (inactive)

Problem: Kindly indicate its recorded growth inhibition. Item: "COC(=O)/C=C(/C(=O)OC)C(Cl)(Cl)Cl"
Solution: 99% (active)

Problem: State its growth inhibition: CN(C)CCOC1(Cc2ccc(F)cc2)CCC(C(C)(C)C)CC1 (stereo not given)
Solution: 16% (inactive)

Problem: Return growth inhibition (reported value) for this compound: "C=C(C(=C)n1nnc(C(=O)OC)c1C(=O)OC)n1nnc(C(=O)OC)c1C(=O)OC"
Solution: -1% (inactive)

Problem: Hello, please tell me recorded growth inhibition for this one: "CSc1nnc(SC)nn1"
Solution: 38% (inactive)

Problem: Give a short answer stating reported growth inhibition for "O=C1Nc2ccc(Br)cc2C1=Nc1ccc2c(c1)OCO2" .
Solution: -34% (inactive)

Problem: Supply measured growth inhibition of CC(=O)OCC(C)Cc1cc2c(cc1Br)OCO2 (stereo not given) in your reply.
Solution: 20% (inactive)

Problem: For the compound CCC1(OC(=O)CN2CCN(CCO)CC2)C(=O)OCc2c1cc1n(c2=O)Cc2cc3ccccc3nc2-1 (stereo not given) , give its measured growth inhibition value.
Solution: 5% (inactive)

Problem: Check the records and state growth inhibition for CC(O)=NC(Cc1ccc2ccccc2c1)C(O)=NC(Cc1ccc(Cl)cc1)C(O)=NC(Cc1c[nH]c2ccccc12)C(O)=NC(CO)C(O)=NC(Cc1ccc(O)cc1)C(O)=NC(CCCN=C(N)N)C(O)=NC(CC(C)C)C(O)=NC(CCCN=C(N)N)C(=O)N1CCCC1C(O)=NC(C)C(=N)O (stereo not given)
Solution: 11% (inactive)

----------
TEST DESCRIPTION: NCI Yeast Anticancer Drug Screen. Data for the mlh1 strain (AID 171);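 note: 0% = growth of vehicle-treated control cultures of the same strain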
EXPERIMENTAL PARAMETERS: S. cerevisiae mlh1 strain growth inhibition; at 11.0 µM; active compounds read high
About 79,000 compounds went through this panel and 15% of them were active in at least one assay; those are over-represented in the sample as a whole.
ENDPOINT NAME: growth inhibition (%)
Write the value in % as a bare number.

Problem: Look up and state reported growth inhibition for "CCOc1ccccc1N=Cc1c2ccccc2cc2ccccc12"
Solution: 97

Problem: Let me know recorded growth inhibition for "O=c1ccc(=O)n(-c2ccccc2)[nH]1" , thanks.
Solution: 30

Problem: Read the entry "Cc1nc(Nc2ccccc2[N+](=O)[O-])sc1C(=O)CC(=O)C(=O)Nc1c(C(C)C)cccc1C(C)C" and write its reported growth inhibition.
Solution: 5

Problem: Output growth inhibition of Cc1ccc(CC2(OCCN(C)C)CCC(C(C)(C)C)CC2)cc1 (configuration not stated)
Solution: 13

Problem: Give the reported growth inhibition for this compound. "O=C(O)c1ccccc1/C=N/N=C1c2ccccc2-c2ccccc21"
Solution: 1

Problem: Indicate its recorded growth inhibition; the compound in question is "CCCC/C=C/C(C)(C(=O)OCC)C(=O)OCC"
Solution: -1

Problem: Specify measured growth inhibition for CC(C)C(C)/C=C\C(C)C1CCC2C3=CC=C4CC(O)CCC4(C)C3CCC21C (configuration not stated) .
Solution: -5

Problem: Recall and state the measured growth inhibition for "Cc1ccc(Cl)cc1NC(=O)OCCN(C)C(=O)Nc1cc(Cl)ccc1C" .
Solution: -33

Problem: Input Nc1nc(N)c2nc(CNc3ccc(C(=O)NC(CCC(=O)O)C(=O)O)cc3F)cnc2n1 (configuration not stated) , output reported growth inhibition.
Solution: 8

Problem: Identify the reported growth inhibition for the following entry. "O=C1C=C(Cl)C(=O)N1c1cccc(Cl)c1"
Solution: 99

Problem: Tell me measured growth inhibition for "CC(C)OC(=O)c1ccc(CCc2cc(O)c(Br)cc2O)cc1" please.
Solution: 71

Problem: Tell us which growth inhibition value is on record for "O=c1c2ccccc2nc(-c2ccccc2)n1O"
Solution: 95

Problem: Report growth inhibition for "COc1cc(O)c(O)c(C(C)(C)C)c1"
Solution: 9

Problem: Answer with reported growth inhibition of "Cc1cc(N(CCOS(C)(=O)=O)CCOS(C)(=O)=O)ccc1C=Nc1ccc(-c2nc(Cc3ccccc3)sc2C)cc1"
Solution: 46

Problem: // fetch growth inhibition given entry "O=C(/C=C/c1cc(Cl)cc(Cl)c1O)c1cccc(O)c1"
Solution: 80

Problem: Supply measured growth inhibition of "CC(C)(C)C1=CC(=CC=C2C=CN(CCCCCCCCCCCO)C=C2)C=C(C(C)(C)C)C1=O" in your reply.
Solution: 99

Problem: Return value of growth inhibition for input CCOC(=O)C1=C(C)NC(C)=C(C(=O)OCCNC(=O)c2ccc(N=[N+]=[N-])cc2)C1c1ccccc1C(F)(F)F (configuration not stated) , no commentary.
Solution: -1

Problem: Give reported growth inhibition value for COc1ccc(C(NCCNC(c2ccc(OC)c(OC)c2)c2cc3c(cc2O)OCO3)c2cc3c(cc2O)OCO3)cc1OC (configuration not stated)
Solution: 12

Problem: Name the recorded growth inhibition of the compound listed here: CCOC(=O)C1N=[N+](c2ccccc2)C(=O)/C1=C\n1c(=S)[nH]c2ccc([N+](=O)[O-])cc21 (configuration not stated)
Solution: 2

Problem: Give the reported growth inhibition for this compound. "O=C1C(=O)c2ccccc2C(O)=C1C(C1=C(O)c2ccccc2C(=O)C1=O)c1ccc(Cl)cc1"
Solution: 58

Problem: Specify measured growth inhibition for CN(C)c1ccc(C2CC(C)(O)Oc3cc4c(cc32)OCO4)cc1 (configuration not stated) .
Solution: 2

Problem: Write down growth inhibition measured for item "COC(=O)Oc1cc(Cl)c(Cl)cc1Cl"
Solution: -7
